Here the recorded inhibition at 1500 g/ha is given for each entry.
Test system: Digitaria sanguinalis
PROCEDURE_TEXT: Herbicidal activity against Digitaria sanguinalis (hairy crabgrass) assessed as inhibition of fresh weed plant weight at 1500 g/ha using pre-emergence treatment protocol
Assay type: functional
Only the number, expressed in %, is required.

Some compounds with known inhibition at 1500 g/ha results, for comparison:
C=CCN1C(=O)COc2cc(F)c(-n3nnc4c(c(C)nn4C)c3=O)cc21 | 47.7
CCOc1cc(-n2nnc3c(cnn3C)c2=O)c(F)cc1Cl | 0
COCCOCOc1cc(-n2nnc3c(cnn3C)c2=O)c(F)cc1Cl | 2.3
C=CCN1C(=O)COc2cc(F)c(-n3nnc4c(cnn4C)c3=O)cc21 | 0
C=CCN1C(=O)COc2cc(F)c(-n3nnc4c(cnn4CC=C)c3=O)cc21 | 92.3

Would you kindly look at the next entry?
Task: # input compound: `C#CCOc1cc(-n2nnc3c(cnn3C)c2=O)c(F)cc1Cl` ; wanted: its inhibition at 1500 g/ha
Result: 0

----------
Test system: Echinochloa crus-galli
PROCEDURE_TEXT: Herbicidal activity against Echinochloa crus-galli (barnyard grass) assessed as inhibition of fresh weed plant weight at 375 g/ha using post-emergence treatment protocol
Format: functional
Think of 10% as a floor: if inhibition at 375 g/ha stands on it or above, it is satisfied; beneath it, not satisfied.

Consider the following illustrative entries.
C=CCN1C(=O)COc2cc(F)c(-n3nnc4c(cnn4CCC)c3=O)cc21 | not satisfied
C=CCN1C(=O)COc2cc(F)c(-n3nnc4nn(CCC)cc4c3=O)cc21 | not satisfied
C#CCOc1cc(-n2nnc3c(cnn3CC=C)c2=O)c(F)cc1Cl | satisfied

Task: Hello, I need to know if `C#CCN1C(=O)COc2cc(F)c(-n3nnc4nn(CC=C)cc4c3=O)cc21` has measured inhibition at 375 g/ha not below 10%. Thanks!
Result: satisfied

Task: Same for `C#CCN1C(=O)COc2cc(F)c(-n3nnc4nn(CCC)cc4c3=O)cc21`
Result: satisfied

Task: Same for `C=CCN1C(=O)COc2cc(F)c(-n3nnc4nn(CC=C)cc4c3=O)cc21`
Result: satisfied

Task: Same for `C=CCOc1cc(-n2nnc3nn(CC=C)cc3c2=O)c(F)cc1Cl`
Result: satisfied

----------
Test system: Echinochloa crus-galli
PROCEDURE_TEXT: Herbicidal activity against Echinochloa crus-galli (barnyard grass) assessed as inhibition of fresh weed plant weight at 750 g/ha using post-emergence treatment protocol
Format: functional
Here the recorded inhibition at 750 g/ha is given for each entry.
Only the number, expressed in %, is required.

C#CCN1C(=O)COc2cc(F)c(-n3nnc4nn(CC=C)cc4c3=O)cc21 | 23.6
C=CCOc1cc(-n2nnc3c(cnn3CC=C)c2=O)c(F)cc1Cl | 22
C#CCOc1cc(-n2nnc3nn(CC=C)cc3c2=O)c(F)cc1Cl | 9.3
C=CCN1C(=O)COc2cc(F)c(-n3nnc4nn(CCC)cc4c3=O)cc21 | 5.4
C=CCOc1cc(-n2nnc3nn(CC=C)cc3c2=O)c(F)cc1Cl | 18
C=CCN1C(=O)COc2cc(F)c(-n3nnc4nn(CC=C)cc4c3=O)cc21 | 18.1
C#CCN1C(=O)COc2cc(F)c(-n3nnc4nn(CCC)cc4c3=O)cc21 | 25.9
C#CCN1C(=O)COc2cc(F)c(-n3nnc4c(cnn4CC=C)c3=O)cc21 | 51.6
C#CCN1C(=O)COc2cc(F)c(-n3nnc4c(cnn4CCC)c3=O)cc21 | 61
C=CCN1C(=O)COc2cc(F)c(-n3nnc4c(cnn4CCC)c3=O)cc21 | 7.3

Task: # input compound: `C#CCOc1cc(-n2nnc3c(cnn3CC=C)c2=O)c(F)cc1Cl` ; wanted: its inhibition at 750 g/ha
Result: 17.1

Task: Same for `C=CCN1C(=O)COc2cc(F)c(-n3nnc4c(cnn4CC=C)c3=O)cc21`
Result: 49.9
